Each recorded value in this set is attributed to ChEMBL document CHEMBL1681678.

# assayRemarks: Inhibition of trypsin
pIC50: −log10 of the molar value.
quantityKind: pIC50

-- ask Please supply the value of reported pIC50 for the item "CC(C)[C@@H](Nc1ccc(CNC(=O)[C@@H]2SCCN2C(=O)C[C@H](N)Cc2cc(F)c(F)cc2F)cc1)C(=O)O.Cl"
-- reply < 4.00

----------
# targetOfAssay: Prolyl endopeptidase (Rattus norvegicus, UniProt O70196)
# Sequence (O70196 whole entry): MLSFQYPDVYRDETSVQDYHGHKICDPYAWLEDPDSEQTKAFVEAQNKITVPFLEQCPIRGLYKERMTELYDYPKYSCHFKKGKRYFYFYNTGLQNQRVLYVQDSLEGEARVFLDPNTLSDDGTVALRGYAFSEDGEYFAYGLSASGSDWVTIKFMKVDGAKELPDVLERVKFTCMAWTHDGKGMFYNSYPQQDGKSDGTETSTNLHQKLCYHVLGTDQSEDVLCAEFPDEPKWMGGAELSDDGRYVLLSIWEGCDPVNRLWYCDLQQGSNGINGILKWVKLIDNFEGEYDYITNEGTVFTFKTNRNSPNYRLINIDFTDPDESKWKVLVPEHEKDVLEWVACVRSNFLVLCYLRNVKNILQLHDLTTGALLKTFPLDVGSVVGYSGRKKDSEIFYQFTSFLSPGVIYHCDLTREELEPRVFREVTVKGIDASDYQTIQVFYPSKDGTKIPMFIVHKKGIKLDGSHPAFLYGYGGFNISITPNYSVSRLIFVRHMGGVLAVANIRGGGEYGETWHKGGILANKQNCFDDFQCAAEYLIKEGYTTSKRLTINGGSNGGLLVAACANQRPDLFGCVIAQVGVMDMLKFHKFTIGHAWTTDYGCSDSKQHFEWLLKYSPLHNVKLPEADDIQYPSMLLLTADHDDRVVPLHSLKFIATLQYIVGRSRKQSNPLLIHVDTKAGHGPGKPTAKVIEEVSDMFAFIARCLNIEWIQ
quantityKind: IC50

-- ask State IC50 (Prolyl endopeptidase (Rattus norvegicus, UniProt O70196)) of "CC(C)[C@@H](Nc1ccc(CNC(=O)[C@@H]2SCCN2C(=O)C[C@H](N)Cc2cc(F)c(F)cc2F)cc1)C(=O)O.Cl" .
-- reply > 100 µM
